# Test system: NCI-H460 cells
# measurement_protocol: cells
# Assay type: cell-based, Human
# settings: Homo sapiens, NCI-H460; Table 5; H460 cells; compounds of Table 2; read-out: IC50
Kindly apply the following: Y if IC50 is less than 0.09 µM, N in every other case.

Worked examples, 5 compounds total:
* C[C@H]1O[C@@H](O[C@H]2[C@@H](O)C[C@H](O[C@H]3[C@@H](O)C[C@H](O[C@H]4CC[C@@]5(C)[C@H](CC[C@@H]6[C@@H]5CC[C@]5(C)[C@@H](C7=CC(=O)OC7)CC[C@]65O)C4)O[C@@H]3C)O[C@@H]2C)C[C@H](O)[C@@H]1O [Digitoxin, reference compound] | N
* CC1O[C@H](O[C@H]2C(C)O[C@@H](O[C@H]3CCC4(C)C(CC[C@@H]5C4CCC4(C)[C@@H](C6=CC(=O)OC6)CC[C@]54O)C3)C(O)C2O)C(O)C(O)[C@@H]1O (stereo partly shown) [Compound 2.7] | Y
* CC1O[C@@H](OC2C(O)[C@H](O[C@H]3CCC4(C)C(CC[C@@H]5C4CCC4(C)[C@@H](C6=CC(=O)OC6)CC[C@]54O)C3)OC(C)[C@@H]2O)C(O)C(O)[C@H]1O (stereo in doubt) [Compound 2.3] | Y
* CC1O[C@H](OC2C(O)[C@H](OC3C(O)[C@H](O[C@H]4CCC5(C)C(CC[C@@H]6C5CCC5(C)[C@@H](C7=CC(=O)OC7)CC[C@]65O)C4)OC(C)[C@@H]3O)OC(C)[C@@H]2O)C(O)C(O)[C@@H]1O (stereo in doubt) [Compound 2.9] | Y
* CC1OC(O[C@H]2CCC3(C)C(CCC4C3CCC3(C)[C@@H](C5=CC(=O)OC5)CC[C@]43O)C2)C(O)C(OC2CC[C@H](O)C(C)O2)[C@H]1O (stereo partly shown) [Compound 2.6] | N

Query: Could you please tell me whether IC50 recorded for CC1O[C@@H](O[C@H]2CCC3(C)C(CC[C@@H]4C3CCC3(C)[C@@H](C5=CC(=O)OC5)CC[C@]43O)C2)C(O)C(O)[C@H]1N (stereo in doubt) [Compound 2.1] is less than 0.09 µM?
Result: Y

Query: Could you please tell me whether IC50 recorded for CC1O[C@@H](OC2C(O)[C@H](OC3C(O)[C@H](O[C@H]4CCC5(C)C(CC[C@@H]6C5CCC5(C)[C@@H](C7=CC(=O)OC7)CC[C@]65O)C4)OC(C)[C@@H]3O)OC(C)[C@@H]2O)C(O)C(O)[C@H]1O (stereo in doubt) [Compound 2.10] is less than 0.09 µM?
Result: Y

Query: Could you please tell me whether IC50 recorded for CC1O[C@@H](O[C@H]2CCC3(C)C(CC[C@@H]4C3CCC3(C)[C@@H](C5=CC(=O)OC5)CC[C@]43O)C2)CC[C@H]1N (stereo partly shown) [Compound 2.2] is less than 0.09 µM?
Result: Y

Query: Could you please tell me whether IC50 recorded for CC1O[C@H](OC2C(O)[C@H](O[C@H]3CCC4(C)C(CC[C@@H]5C4CCC4(C)[C@@H](C6=CC(=O)OC6)CC[C@]54O)C3)OC(C)[C@@H]2O)C(O)C(O)[C@@H]1O (stereo in doubt) [Compound 2.4] is less than 0.09 µM?
Result: N

Query: Could you please tell me whether IC50 recorded for CC1OC(O[C@H]2CCC3(C)C(CCC4C3CCC3(C)[C@@H](C5=CC(=O)OC5)CC[C@]43O)C2)C(O)C(OC2CC[C@@H](O)C(C)O2)[C@H]1O (stereo partly shown) [Compound 2.5] is less than 0.09 µM?
Result: N
